biological target: human CD1a expressed on cells (human, UniProt P06126 17-327); test: cell-based or functional assay
Sequence (P06126 17-327): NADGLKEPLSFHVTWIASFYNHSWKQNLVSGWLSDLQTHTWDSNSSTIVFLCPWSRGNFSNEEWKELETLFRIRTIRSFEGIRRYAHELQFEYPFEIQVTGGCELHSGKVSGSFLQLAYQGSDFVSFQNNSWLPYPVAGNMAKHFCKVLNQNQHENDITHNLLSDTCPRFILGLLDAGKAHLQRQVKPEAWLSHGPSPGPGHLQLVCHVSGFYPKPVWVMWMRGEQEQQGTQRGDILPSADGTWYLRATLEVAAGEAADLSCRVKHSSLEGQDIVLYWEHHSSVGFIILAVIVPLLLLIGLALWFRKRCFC
measurement_kind: Inhibition of CD69 expression, IC50 (nM)
Please reply with the bare figure in nM and do not write the unit itself.

Recorded Inhibition of CD69 expression, IC50, per entry:
{"columns": ["binder", "Inhibition of CD69 expression, IC50 [nM]"],
 "data": [
  ["Ab660 (antibody, human IgG1, kappa, V domains shown, Optimized variant of Ab138; human IgG1 effector null / kappa; HC with or without terminal lysine) VH: EVQLVESGGGLVQPGGSLRLSCAASGFTFTDHYMHWVRQAPGKGLEWVGHIRNAAGGYTTESNPAVKGRFTISRDNAKNSLYLQMNSLRAEDTAVYYCARETTRIPTGWFAYWGQGTLVTVSS VL: DIQMTQSPSSLSASVGDRVTITCLASEDIYFDLAWYQQKPGKAPKLLIYGASTPKDGVPSRFSGSGSGTDYTLTISSLQPEDFATYYCQQSEKYPYTFGQGTKLEIKR", 0.33],
  ["Ab556 (antibody, human IgG1, kappa, V domains shown, Optimized variant of Ab138; human IgG1 effector null / kappa; HC with or without terminal lysine) VH: EVQLVESGGGLVQPGGSLRLSCAASGFTFTDHYMHWVRQAPGKGLEWVAFIRNSAGGYTTESNPAVKGRFTISRDNAKNSLYLQMNSLRAEDTAVYYCARETTRIPTGWFAYWGQGTLVTVSS VL: DIQMTQSPSSLSASVGDRVTITCLASEDIYFDLAWYQQKPGKAPKLLIYGGDRLKEGVPSRFSGSGSGTDYTLTISSLQPEDFATYYCQQSESYPYTFGQGTKLEIKR", 0.73]
]}

With those in mind, consider the next binder.
Identify Inhibition of CD69 expression, IC50 associated with the binder Ab560 (antibody, human IgG1, kappa, V domains shown, Optimized variant of Ab138; human IgG1 effector null / kappa; HC with or without terminal lysine) VH: EVQLVESGGGLVQPGGSLRLSCAASGFTFTDHYMHWVRQAPGKGLEWVAFIRNKAGGYTTESNPAVKGRFTISRDNAKNSLYLQMNSLRAEDTAVYYCARETTTIPTGWFAYWGQGTLVTVSS VL: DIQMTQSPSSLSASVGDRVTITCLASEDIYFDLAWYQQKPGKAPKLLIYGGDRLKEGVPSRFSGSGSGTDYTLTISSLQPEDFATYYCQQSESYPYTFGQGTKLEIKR 1.61
